What IC50 was measured for each of the following?
- Tgt: UniProt Q13822
- Protocol Text: Autotaxin LPC Cascade Assay
- Assay type: biochemical
- Condition Label: Autotaxin 5 nM, LPC 100 μM, choline oxidase/HRP/Ampliflu Red fluorescence read-out, 2% DMSO, RT; read-out: IC50 ATX Activity

Prompt: Enter recorded IC50 with UniProt Q13822 for CC(C)[C@@H](NC(=O)c1cc(Cl)cc(Cl)c1)C(=O)N1CCC2(CC1)C(=O)N(C)C(=O)N2c1ccccc1 [Example 48] here.
Completion: < 500 nM

Prompt: Enter recorded IC50 with UniProt Q13822 for CC(C)[C@@H](NC(=O)c1cc(C(F)(F)F)ccc1F)C(=O)N1CCC2(CC1)C(=O)N(C)C(=O)N2c1ccc(OCC2COC2)cc1 [Example 83] here.
Completion: < 500 nM

Prompt: Enter recorded IC50 with UniProt Q13822 for COc1ccc(F)c(C(=O)N[C@@H](C(=O)N2CCC3(CC2)C(=O)N(C)C(=O)N3c2ccc3[nH]ncc3c2)C(C)C)c1 [Example 63] here.
Completion: 500 to 1000 nM

Prompt: Enter recorded IC50 with UniProt Q13822 for CC(C)[C@@H](NC(=O)c1cc(C(F)(F)F)ccc1Cl)C(=O)N1CCC2(CC1)C(=O)N(C)C(=O)N2c1ccc2[nH]ncc2c1 [Example 68] here.
Completion: ≥ 1000 nM

Prompt: Enter recorded IC50 with UniProt Q13822 for CN1C(=O)N(c2ccc3[nH]ncc3c2)C2(CCN(C(=O)CNC(=O)c3cc(C(F)(F)F)ccc3F)CC2)C1=O [Example 70] here.
Completion: ≥ 1000 nM

Prompt: Enter recorded IC50 with UniProt Q13822 for CC(C)[C@H](C(=O)N1CCC2(CC1)C(=O)N(C)C(=O)N2c1ccc2[nH]ncc2c1)N(C)C(=O)c1cc(C(F)(F)F)ccc1F [Example 236] here.
Completion: ≥ 1000 nM

----------
pIC50: −log10 of the molar value. Counter-ions that a name gives are not always drawn.
Measure: pIC50

Prompt: Enter recorded pIC50 with Autotaxin (Homo sapiens (Human), UniProt Q13822) for CCN1C(=O)N(C)C(=O)C12CCN(C(=O)[C@H](NC(=O)c1cc(C(F)(F)F)ccc1F)C(C)C)CC2 [Example 123] here.
Completion: ≤ 6.00

Prompt: Enter recorded pIC50 with Autotaxin (Homo sapiens (Human), UniProt Q13822) for CC(C)[C@@H](NC(=O)c1cc(C(F)(F)F)ccc1F)C(=O)N1CCC2(CC1)C(=O)N(C)CN2c1ccc2nccn2c1 [Example 206, trifluoroacetic Acid Salt] here.
Completion: > 6.30

Prompt: Enter recorded pIC50 with Autotaxin (Homo sapiens (Human), UniProt Q13822) for CCc1ccc(F)c(C(=O)N[C@@H](C(=O)N2CCC3(CC2)C(=O)N(C)C(=O)N3c2ccc3cnc(C)n3c2)C(C)C)c1 [Example 18] here.
Completion: > 6.30

Prompt: Enter recorded pIC50 with Autotaxin (Homo sapiens (Human), UniProt Q13822) for CC(C)[C@@H](NC(=O)c1cc(C(F)(F)F)ccc1F)C(=O)N1CCC2(CC1)C(=O)N(C)C(=O)N2c1cc[n+]([O-])cc1 [Example 240] here.
Completion: ≤ 6.00

Prompt: Enter recorded pIC50 with Autotaxin (Homo sapiens (Human), UniProt Q13822) for CCc1ccc(F)c(C(=O)N[C@@H](C(=O)N2CCC3(CC2)C(=O)N(C)CN3c2ccc(NC(C)=O)cc2)C(C)C)c1 [Example 172] here.
Completion: > 6.30

Prompt: Enter recorded pIC50 with Autotaxin (Homo sapiens (Human), UniProt Q13822) for CC(C)[C@@H](NC(=O)c1cc(C(F)(F)F)ccc1F)C(=O)N1CCC2(CC1)C(=O)N(C)C(=O)N2c1ccc2c(c1)OCCN2 [Example 21] here.
Completion: > 6.30

Prompt: Enter recorded pIC50 with Autotaxin (Homo sapiens (Human), UniProt Q13822) for COc1ccc(CN2C(=O)N(C)C(=O)C23CCN(C(=O)[C@H](NC(=O)c2cc(C(F)(F)F)ccc2F)C(C)C)CC3)cn1 [Example 97] here.
Completion: > 6.30

Prompt: Enter recorded pIC50 with Autotaxin (Homo sapiens (Human), UniProt Q13822) for CC(C)[C@@H](NC(=O)c1cc(C(F)(F)F)ccc1F)C(=O)N1CCC2(CC1)C(=O)N(C)C(=O)N2c1ccc2ocnc2c1 [Example 245] here.
Completion: > 6.30

Prompt: Enter recorded pIC50 with Autotaxin (Homo sapiens (Human), UniProt Q13822) for CCc1cc(F)cc(C(=O)N[C@@H](C(=O)N2CCC3(CC2)C(=O)N(C)C(=O)N3c2ccccc2)[C@H](C)OC)c1 [Example 38] here.
Completion: ≤ 6.00

Prompt: Enter recorded pIC50 with Autotaxin (Homo sapiens (Human), UniProt Q13822) for CC(C)[C@@H](NC(=O)c1cc(C(F)(F)F)ccc1F)C(=O)N1CCC2(CC1)C(=O)N(C)C(=O)N2Cc1ccc(=O)n(C)c1 [Example 120] here.
Completion: 6.00 to 6.30

Prompt: Enter recorded pIC50 with Autotaxin (Homo sapiens (Human), UniProt Q13822) for CC(C)[C@@H](NC(=O)c1cc(C(F)(F)F)ccc1F)C(=O)N1CCC2(CC1)C(=O)N(CC1CC1)CN2c1ccc(C(=O)O)cc1 [Example 155] here.
Completion: > 6.30

Prompt: Enter recorded pIC50 with Autotaxin (Homo sapiens (Human), UniProt Q13822) for CC(C)[C@@H](NC(=O)c1cc(C(F)(F)F)ccc1F)C(=O)N1CCC2(CC1)C(=O)N(C)C(=O)N2c1ccc2occc2c1 [Example 27] here.
Completion: > 6.30

Prompt: Enter recorded pIC50 with Autotaxin (Homo sapiens (Human), UniProt Q13822) for CCc1ccc(F)c(C(=O)N[C@@H](C(=O)N2CCC3(CC2)C(=O)N(CC#N)C(=O)N3c2ccc(OC)cc2)C(C)C)c1 [Example 5] here.
Completion: > 6.30

----------
Observed IC50 values for Autotaxin (Homo sapiens (Human)) are listed in what follows.

Prompt: Quote IC50 reported for CC(C)[C@@H](NC(=O)c1cc(C(F)(F)F)ccc1F)C(=O)N1CCC2(CC1)C(=O)N(C)C(=O)N2Cc1cnn(C)c1 please.
Completion: ≥ 1000 nM

Prompt: Quote IC50 reported for CC(C)[C@@H](NC(=O)c1cc(F)ccc1F)C(=O)N1CCC2(CC1)C(=O)N(C)C(=O)N2c1ccc2[nH]ncc2c1 please.
Completion: 500 to 1000 nM

Prompt: Quote IC50 reported for CC(C)[C@@H](NC(=O)c1cc(Cl)ccc1Cl)C(=O)N1CCC2(CC1)C(=O)N(C)C(=O)N2c1ccc2[nH]ncc2c1 please.
Completion: ≥ 1000 nM

Prompt: Quote IC50 reported for CC(C)[C@@H](NC(=O)c1cc(C(F)(F)F)ccc1F)C(=O)N1CCC2(CC1)C(=O)N(C)C(=O)N2Cc1ccc(C#N)cc1 please.
Completion: < 500 nM

Prompt: Quote IC50 reported for CC(C)[C@@H](NC(=O)c1cc(C(F)(F)F)ccc1F)C(=O)N1CCC2(CC1)C(=O)N(C)C(=O)N2c1ccc(OCC#N)cc1 please.
Completion: 500 to 1000 nM

Prompt: Quote IC50 reported for CC(C)[C@@H](NC(=O)c1cc(C(F)(F)F)ccc1F)C(=O)N1CCC2(CC1)C(=O)N(C)CN2c1ccc(NC2COC2)cc1 please.
Completion: < 500 nM

----------
Observed IC50 values for Autotaxin (Homo sapiens (Human)) are listed in what follows.
Structures can show the parent of a compound that is named as a salt.

Prompt: Quote IC50 reported for CC[C@@H](C)[C@@H](NC(=O)c1cccc(C)c1F)C(=O)N1CCC2(CC1)C(=O)N(C)C(=O)N2c1ccccc1 [Example 4] please.
Completion: < 500 nM

Prompt: Quote IC50 reported for CCc1cccc(C(=O)N[C@@H](C(=O)N2CCC3(CC2)C(=O)N(C)C(=O)N3c2ccccc2)C(C)C)c1F [Example 34] please.
Completion: ≥ 1000 nM

Prompt: Quote IC50 reported for CC(C)[C@@H](NC(=O)c1cc(C(F)(F)F)ccc1F)C(=O)N1CCC2(CC1)C(=O)N(C)C(=O)N2c1ccc2cn[nH]c2c1 [Example 53] please.
Completion: ≥ 1000 nM

Prompt: Quote IC50 reported for CC(C)[C@@H](NC(=O)C1CCCCC1)C(=O)N1CCC2(CC1)C(=O)N(C)C(=O)N2c1ccc2[nH]ncc2c1 [Example 230] please.
Completion: ≥ 1000 nM

Prompt: Quote IC50 reported for CC(C)[C@@H](NC(=O)C(C)(C)C)C(=O)N1CCC2(CC1)C(=O)N(C)C(=O)N2c1ccc2[nH]ncc2c1 [Example 232] please.
Completion: ≥ 1000 nM

Prompt: Quote IC50 reported for CC(C)[C@@H](NC(=O)c1cc(C(F)(F)F)ccc1F)C(=O)N1CCC2(CC1)C(=O)N(C)C(=O)N2c1ccccc1 [Example 44] please.
Completion: < 500 nM

Prompt: Quote IC50 reported for CC(C)[C@@H](NC(=O)c1cc(C(F)(F)F)ccc1F)C(=O)N1CCC2(CC1)C(=O)N(C)CN2c1ccc(OCCN(C)C)cc1 [Example 171, trifluoroacetic Acid Salt] please.
Completion: < 500 nM

Prompt: Quote IC50 reported for Cc1ccc(N2C(=O)N(C)C(=O)C23CCN(C(=O)[C@H](NC(=O)c2cc(C(F)(F)F)ccc2F)C(C)C)CC3)cc1 [Example 184] please.
Completion: < 500 nM

Prompt: Quote IC50 reported for CC(C)[C@@H](NC(=O)c1ccncc1)C(=O)N1CCC2(CC1)C(=O)N(C)C(=O)N2c1ccc2[nH]ncc2c1 [Example 231] please.
Completion: ≥ 1000 nM

Prompt: Quote IC50 reported for CC(C)[C@@H](NC(=O)c1nc(C(F)(F)F)cs1)C(=O)N1CCC2(CC1)C(=O)N(C)C(=O)N2c1ccc2[nH]ncc2c1 [Example 235] please.
Completion: ≥ 1000 nM

Prompt: Quote IC50 reported for CCc1cccc(C(=O)N[C@@H](C(=O)N2CCC3(CC2)C(=O)N(C)CN3c2ccccc2)C(C)C)c1 [Example 138] please.
Completion: < 500 nM

Prompt: Quote IC50 reported for COc1ccc(CN2C(=O)N(C)C(=O)C23CCN(C(=O)[C@H](NC(=O)c2cc(C(F)(F)F)ccc2F)C(C)C)CC3)cc1 [Example 91] please.
Completion: < 500 nM

Prompt: Quote IC50 reported for CCc1ccc(F)c(C(=O)N[C@@H](C(=O)N2CCC3(CC2)C(=O)N(C)[C@@H](C)N3c2ccc(C(=O)O)cc2)C(C)C)c1 (single isomer, unassigned) [Example 211] please.
Completion: < 500 nM

Source: patent US10233182B2
